The entries below come with measured koff values attached.
Biological target: T1, human BCMA-hFc kih monovalent recombinant protein (human, UniProt P0DOX5 223-449 = IgG part)
T1 construct: Knob-into-hole heterodimer with one BCMA arm, expressed in HEK293E; also called human BCMA-hFc recombinant protein
Assay: SPR (Biacore T200), BCMA-hFc captured on Protein A chip, Fab as analyte, 1:1 Langmuir
// units = s⁻¹; emit number, no label

Record excerpt, results attached:
1) 38D9 Fab (Fab, V domains shown, Murine BCMA Fab, Ni-NTA purified) VH: EVQLQQSGPELKKPGETVKISCKASGYIFTNFGMNWVRQAPGKALKWMGWINTYTGEQIYADDFKGRFAFSLETSASTAYLQINNLKNEDTATYFCARGEIYYGYDVGFVYWGQGTLVTVSA VL: DIVLTQSPASLTVSLGQRATISCGASKSVSTSGYSYMHWYQQKPGQPPKLLIYLGSDLESGVPARFSGSGSGTDFTLNIHPVEEEDAATYYCQHSRELPWTFGGGTKLEIK : 0.000329
2) 29A11 Fab (Fab, V domains shown, Murine BCMA Fab, Ni-NTA purified) VH: EIQLVQSGPELKKPGETVKISCKASGYIFTNFGMNWVRQAPGKALKWMGWINTYTGEQIYADDFKGRFAFSLETSASTAYLQINNLKNEDTATYFCARGEIYYGYDVGFVYWGQGTLVTVSA VL: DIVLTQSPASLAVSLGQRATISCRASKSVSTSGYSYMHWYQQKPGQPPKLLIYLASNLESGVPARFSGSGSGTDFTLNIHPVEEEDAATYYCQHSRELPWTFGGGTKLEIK : 0.000243
3) 16B9 Fab (Fab, V domains shown, Murine BCMA Fab, Ni-NTA purified) VH: EIQLVQSGPELKKPGETVKISCKASGYIFTNFGMNWVRQTPGKALKWMGWINTYTGETIYADDFKGLFAFSLEVPASTAYLQINNLKNEDTATYFCARGEIYYGFDVGFAYWGQGTLVTVSA VL: DIVLTQSPASLTVSLGQRATISCRASKSVSTSGYSYIHWYQQKPGQPPKLLIYLASDLESGVPARFSGSGSGTDFTLNIHPVEEEDAATYYCQHSRELPWTFGGGTKLELK : 0.000476
4) 3G11 Fab (Fab, V domains shown, Murine BCMA Fab from phage library, expressed in TG1 periplasm, purified by Ni-NTA) VH: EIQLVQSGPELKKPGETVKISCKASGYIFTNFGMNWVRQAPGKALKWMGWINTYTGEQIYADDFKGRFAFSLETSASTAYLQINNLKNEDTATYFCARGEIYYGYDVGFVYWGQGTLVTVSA VL: DIVLTQSPASLTVSLGQRATISCRASKSVSTSGYSYMHWYQQKPGQPPKLLIYLASDLESGVSARFSGSGSGTDFTLNIHPVEEEDAATYYCQHSRELPWTFGGGTKLEIK : 0.000432

Query binder follows.
Returns the measured koff for the input binder. Input: 40C6 Fab (Fab, V domains shown, Murine BCMA Fab, Ni-NTA purified) VH: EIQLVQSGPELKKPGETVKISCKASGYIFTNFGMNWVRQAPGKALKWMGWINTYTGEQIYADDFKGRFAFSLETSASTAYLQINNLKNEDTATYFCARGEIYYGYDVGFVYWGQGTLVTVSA VL: DIVLTQSPASLAISLGQRATISCRASRSVTTSGYSYIHWYQQKPGQPPKLLIYLASDLEAGVPARFSGSGSGTDFTLNIHPVEEEDAATYYCQHSRELPWTFGGGTKLEIK
0.000271
